target: Extracellular calcium-sensing receptor (Homo sapiens, UniProt P41180); assay: Agonist activity at human CaSR expresssed in HEK293 cells in presence of glucose by Fluo4NW dye based FLIPR assay; assay type: functional, cell-based; settings: read-out: EC50
Sequence (P41180 whole entry): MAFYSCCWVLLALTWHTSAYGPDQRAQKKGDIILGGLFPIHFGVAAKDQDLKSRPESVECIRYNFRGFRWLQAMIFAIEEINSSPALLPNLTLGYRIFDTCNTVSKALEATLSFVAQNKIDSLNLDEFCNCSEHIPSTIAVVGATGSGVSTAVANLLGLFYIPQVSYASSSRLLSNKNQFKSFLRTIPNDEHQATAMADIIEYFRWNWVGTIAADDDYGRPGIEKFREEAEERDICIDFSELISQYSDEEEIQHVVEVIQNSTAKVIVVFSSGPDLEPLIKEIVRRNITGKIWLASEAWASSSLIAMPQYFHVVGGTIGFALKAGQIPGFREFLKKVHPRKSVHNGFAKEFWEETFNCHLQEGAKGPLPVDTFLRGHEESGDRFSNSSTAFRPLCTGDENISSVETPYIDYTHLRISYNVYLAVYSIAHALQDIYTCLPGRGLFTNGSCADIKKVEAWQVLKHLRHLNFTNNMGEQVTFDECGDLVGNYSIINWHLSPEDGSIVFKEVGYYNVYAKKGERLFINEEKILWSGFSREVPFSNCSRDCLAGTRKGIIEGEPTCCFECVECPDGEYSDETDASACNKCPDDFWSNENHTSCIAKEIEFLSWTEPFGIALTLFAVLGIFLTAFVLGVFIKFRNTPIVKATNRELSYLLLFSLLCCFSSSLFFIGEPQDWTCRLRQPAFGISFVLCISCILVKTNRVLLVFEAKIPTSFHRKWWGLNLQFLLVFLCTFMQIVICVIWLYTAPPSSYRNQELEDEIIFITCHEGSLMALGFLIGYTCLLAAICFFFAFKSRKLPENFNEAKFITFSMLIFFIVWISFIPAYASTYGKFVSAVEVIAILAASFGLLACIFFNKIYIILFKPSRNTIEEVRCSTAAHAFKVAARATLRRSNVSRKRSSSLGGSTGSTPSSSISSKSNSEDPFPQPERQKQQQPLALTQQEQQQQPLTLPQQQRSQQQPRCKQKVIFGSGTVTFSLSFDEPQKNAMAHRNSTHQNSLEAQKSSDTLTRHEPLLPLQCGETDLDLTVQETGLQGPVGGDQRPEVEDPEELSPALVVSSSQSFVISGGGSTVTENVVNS
pEC50: −log10 of the molar value.
Measured pEC50, listed per entry.
READOUT TYPE: pEC50

MOLECULE	READOUT TYPE	VALUE RELATION SIGN	NUMERIC RESULT
Cc1ccc(N2CC(CN[C@H](C)c3cccc4ccccc34)Oc3ccccc32)cc1C(=O)O.Cl (some centres undefined)	pEC50	=	8.15
Cc1cc(C(=O)O)cc(N2CC(CN[C@H](C)c3cccc4ccccc34)Oc3ccccc32)c1 (mixture of isomers; form 1)	pEC50	=	7.08
C[C@@H](NCC1CN(c2cccc(CCC(=O)O)c2)c2ccccc2O1)c1cccc2ccccc12.Cl (mixture of isomers)	pEC50	=	7.15
COc1ccc(N2CC(CN[C@H](C)c3cccc4ccccc34)Oc3ccccc32)cc1C(=O)O (mixture of isomers; form 2)	pEC50	<	7.05
